Tested on: HCT-116 colon
experiment_notes: NCI tumour cell line growth inhibition, 48 h
parameter: GI50

See these solved cases before continuing.
{"compound_smiles": "Ic1ccc2[nH]cc(SSc3c[nH]c4ccc(I)cc34)c2c1", "parameter": "GI50", "observed_measurement": "1.25 µM"}
{"compound_smiles": "COc1cc(Nc2cc(C)nc(N3CCN(c4ccnc5cc(Cl)ccc45)CC3)n2)cc(OC)c1", "parameter": "GI50", "observed_measurement": "0.103 µM"}
{"compound_smiles": "COc1cc(OC)cc(Oc2nc3cc(N)cc(N)c3nc2-c2ccccc2)c1", "parameter": "GI50", "observed_measurement": "2.36 µM"}

# input for lookup
Problem: Which measured GI50 value corresponds to CC#Cc1nc2ccccc2c(=O)[nH]1 ?
Result: 3.24 µM

---

Tested on: TK-10 renal
experiment_notes: NCI tumour cell line growth inhibition, 48 h
Property: TGI; scope: individual compounds

See these solved cases before continuing.
{"compound": "CC(C)(C)c1[nH]nc2c1C(c1cc3ccccc3[nH]c1=O)Nc1cc(C(=O)Nc3ccc(Cl)cc3)ccc1N2 (centres undefined)", "parameter": "TGI", "observed_measurement": "17.2 µM"}
{"compound": "COc1ccc(C2=NN(C(=O)c3ccc(Cl)cc3)C(O)(c3cc(F)c(Cl)cc3Cl)C2)cc1OC (centres undefined)", "parameter": "TGI", "observed_measurement": "> 100 µM"}
{"compound": "OC(Cc1cccnc1)(c1ccccc1)c1ccccc1", "parameter": "TGI", "observed_measurement": "> 100 µM"}
{"compound": "Cc1cc2c(c(C(N)=O)c1C)-c1cccc(Cl)c1C2=O", "parameter": "TGI", "observed_measurement": "> 100 µM"}

Problem: Which measured TGI value corresponds to O=c1[nH]c(=O)n(C2OC(CO)C(N(O)Cc3ccc(F)cc3)C2O)cc1Br (centres undefined) ?
Result: > 100 µM

Problem: Which measured TGI value corresponds to Cc1ccc(C[N+](C)(C)N)cc1C ?
Result: > 10 µM

Problem: Which measured TGI value corresponds to COc1ccc2c(c1)N(CCO)C1=C(C(=O)OC1)C2c1cc(OC)c(OC)c(OC)c1 (centres undefined) ?
Result: > 50 µM

Problem: Which measured TGI value corresponds to O=C1CCCn2c(nc3ccccc32)N1 ?
Result: > 100 µM

Problem: Which measured TGI value corresponds to COC(=O)c1c2c(c[n+]([O-])c1C)C(=O)C=C(NCc1ccccc1)C2=O ?
Result: 2.09 µM

---

Test system: MCF7 breast
experiment_notes: NCI tumour cell line growth inhibition, 48 h
Property: TGI; scope: individual molecules

See these solved cases before continuing.
{"molecule": "O=C(CC(=O)Nc1ccccc1Cl)NNC(c1cc(N=Nc2ccc(Br)cc2)ccc1O)P(O)O (stereo unspecified)", "TGI": "> 10 µM"}
{"molecule": "Cc1ncc([N+](=O)[O-])n1CC(O)Cn1ccnc1[N+](=O)[O-] (stereo unspecified)", "TGI": "> 100 µM"}
{"molecule": "COc1ccc(C(OCC2OC(n3cnc4c(=O)n(Cc5ccccc5[N+](=O)[O-])nnc43)C(O)C2O)(c2ccccc2)c2ccc(OC)cc2)cc1 (stereo unspecified)", "TGI": "> 100 µM"}

Problem: Which measured TGI value corresponds to CC(=O)OC1C[C@@H](C)C2(C[C@H](O)c3ccoc3)C(=O)OC[C@]13C2CCC(O)C31CO1 (stereo partly specified) ?
Result: > 100 µM

Problem: Which measured TGI value corresponds to COC(=O)[C@@H](Nc1ccccc1)[C@@]1(C(=O)OC)SC12c1ccccc1-c1ccccc12 ?
Result: > 100 µM

Problem: Which measured TGI value corresponds to N#CCCC(CC#N)N1CCN(C(CC#N)CCC#N)CC1 (stereo unspecified) ?
Result: > 100 µM

Problem: Which measured TGI value corresponds to CC(=O)Nc1ccc(-c2csc(Nc3ccc(-c4csc(-c5ccccc5)n4)cc3)n2)cc1 ?
Result: > 50 µM

Problem: Which measured TGI value corresponds to COc1ccccc1N1C(=O)C2C3c4ccccc4C(OC(C)=O)(c4ccccc43)C2C1=O (stereo unspecified) ?
Result: > 100 µM

Problem: Which measured TGI value corresponds to c1ccc(N=C2SC(c3ccccc3)(c3ccccc3)c3ccccc32)cc1 ?
Result: > 100 µM

Problem: Which measured TGI value corresponds to N#CCCC1(CCC#N)CCc2ccccc2C1=O ?
Result: > 100 µM

Problem: Which measured TGI value corresponds to Cc1ccc(N(C)S(=O)(=O)c2ccc([N+](=O)[O-])cc2)cc1 ?
Result: > 100 µM

---

System: M14 melanoma
experiment_notes: NCI tumour cell line growth inhibition, 48 h
Property: TGI; scope: individual molecules
Report the figure in µM without appending any unit label.

See these solved cases before continuing.
{"molecule": "O=C(C(=NC12CC3CC(CC(C3)C1)C2)NNc1ccc([N+](=O)[O-])cc1[N+](=O)[O-])C(Br)C(=O)c1ccccc1 (stereo not given)", "target_or_test_system": "M14 melanoma", "TGI (µM)": 6.84}
{"molecule": "Nc1nc2c(c3cnccc13)C(c1cccc(Br)c1)Cc1cnccc1-2 (stereo not given)", "target_or_test_system": "M14 melanoma", "TGI (µM)": 0.615}
{"molecule": "O=C(Nc1cccc(C(F)(F)F)c1)C(=O)C(C(=O)c1ccc2ccccc2c1)C1OC(=O)c2ccccc21 (stereo not given)", "target_or_test_system": "M14 melanoma", "TGI (µM)": 34.4}

# input for lookup
Problem: Which measured TGI value corresponds to CC(C)(Cl)C(Cl)CC/C(CBr)=C(\Cl)CCl (stereo not given) ?
Result: 3.61

---

System: SK-MEL-28 melanoma
experiment_notes: NCI tumour cell line growth inhibition, 48 h
parameter: TGI

See these solved cases before continuing.
{"compound": "O=C(Nc1cccc(C(F)(F)F)c1)C(=O)C(C(=O)c1ccc2ccccc2c1)C1OC(=O)c2ccccc21 (stereo not drawn)", "target_or_test_system": "SK-MEL-28 melanoma", "observed_measurement": "15.7 µM"}
{"compound": "O=c1[nH]c(=O)n(C2OC(CO)C(N(O)Cc3ccc(F)cc3)C2O)cc1Br (stereo not drawn)", "target_or_test_system": "SK-MEL-28 melanoma", "observed_measurement": "> 100 µM"}

# input for lookup
Problem: Which measured TGI value corresponds to Cn1c(-c2ccc(/C=N/N=C/c3ccc(-c4c[n+]5ccccc5n4C)cc3)cc2)c[n+]2ccccc12 ?
Result: > 100 µM

---

Property: TGI; scope: individual compounds
Test system: MOLT-4 leukemia
experiment_notes: NCI tumour cell line growth inhibition, 48 h
Report the figure in µM without appending any unit label.

{"compound": "O=C(Nc1cccc(C(F)(F)F)c1)C(=O)C(C(=O)c1ccc2ccccc2c1)C1OC(=O)c2ccccc21 (centres undefined)", "observed_measurement": 11.1}

Problem: Which measured TGI value corresponds to O=C1Nc2c(Cl)cc(Cl)cc2/C1=N/N=C/c1ccccc1O ?
Result: 62.5

---

Property: TGI; scope: individual molecules
System: T-47D breast
experiment_notes: NCI tumour cell line growth inhibition, 48 h

See these solved cases before continuing.
{"molecule": "O=C(O)c1ccccc1C1CCCc2c1[nH]c1ccccc21 (stereo unspecified)", "TGI": "71 µM"}
{"molecule": "S=C(Nc1c2c(nc3ccccc13)CCCC2)Nc1c2c(nc3ccccc13)CCCC2", "TGI": "> 100 µM"}
{"molecule": "CCN1CCN(c2cc(C)nc(N(CCCNc3ccnc4cc(Cl)ccc34)Cc3cccs3)n2)CC1", "TGI": "6.89 µM"}
{"molecule": "O=[N+]([O-])c1ccc(N=Nc2c(O)ccc3cc(S(=O)(=O)O)cc(S(=O)(=O)O)c23)cc1", "TGI": "> 100 µM"}
{"molecule": "CC(C)(Cl)C(Cl)CC/C(CBr)=C(\\Cl)CCl (stereo unspecified)", "TGI": "3.88 µM"}

Problem: Which measured TGI value corresponds to O=C(Nc1ccn(C2CC(O)C(CO)O2)c(=O)n1)c1ccccc1 (stereo unspecified) ?
Result: > 100 µM

Problem: Which measured TGI value corresponds to CC(=O)Nc1cc(C(=O)Nc2cc(C(=O)Nc3cc(C(=O)Nc4cc(C(=O)Nc5cc(C(=O)NCCC(=O)NCCCN(C)C)n(C)c5)n(C)c4)n(C)c3)n(C)c2)n(C)c1 ?
Result: 72.2 µM

Problem: Which measured TGI value corresponds to N#CCCC1(CCC#N)CCc2ccccc2C1=O ?
Result: > 100 µM

Problem: Which measured TGI value corresponds to O=C(C(=NC12CC3CC(CC(C3)C1)C2)NNc1ccc([N+](=O)[O-])cc1[N+](=O)[O-])C(Br)C(=O)c1ccccc1 (stereo unspecified) ?
Result: 9.29 µM

Problem: Which measured TGI value corresponds to Cc1ccc(S(=O)(=O)NC(CCC(=O)NN)C(=O)NN)cc1 (stereo unspecified) ?
Result: > 100 µM

Problem: Which measured TGI value corresponds to COc1cccc2c1C(=O)c1c(O)c3c(c(O)c1C2=O)CC(O)(C(O)CO)CC3OC1CC2C(OC3COCC(C#N)N32)C(C)O1 (stereo unspecified) ?
Result: < 0.01 µM

Problem: Which measured TGI value corresponds to O=C(O)/C=N/NC(=S)NC1CCCCC1 ?
Result: > 100 µM

Problem: Which measured TGI value corresponds to C[C@]12CCC3c4ccc(O)cc4CC[C@H]3C1CC(=O)N(CCN1CCCC1)C2=O (stereo partly specified) ?
Result: > 10 µM

Problem: Which measured TGI value corresponds to COC(=O)[C@@H](Nc1ccccc1)[C@@]1(C(=O)OC)SC12c1ccccc1-c1ccccc12 ?
Result: > 100 µM

Problem: Which measured TGI value corresponds to CCCCCC(/C=N/Nc1ccccc1)C(O)(C(F)(F)F)C(F)(F)F (stereo unspecified) ?
Result: > 100 µM

Problem: Which measured TGI value corresponds to O=C1/C(=C\c2ccc(Br)cc2)CN(C(=O)c2ccccc2F)C/C1=C\c1ccc(Br)cc1 ?
Result: 24.1 µM
